Documented pKi across a set of molecules
target: Human LATS2 catalytic domain (Homo sapiens (Human)); experiment: LATS2 High ATP HTRF Assay; type: biochemical; conditions: no asterisk: LATS2 High ATP HTRF Assay, 5000 μM ATP, 0.05 nM LATS2
The read-out pKi is expressed as -log10 of concentration in moles per litre.

> print(dat)
                                chem.smiles  meas.value
1  FC(F)(F)c1cncc2nc(-c3ccncc3)nc(N3CCC4(CCNC4)CC3)c12        8.46
2  OC1(CN2CCC3(CCN(c4nc(-c5ccncc5)nc5cnccc45)CC3)C2)CCC1        9.64
3  FCCN1CCC2(CCN(c3nc(-c4ccncc4)nc4cnccc34)CC2)C1        9.14

Looking up Brc1cncc2nc(-c3ccncc3)nc(N3CCC4(CCNC4)CC3)c12 , I found its pKi recorded as 8.68

* * *

target: Human LATS2 catalytic domain (Homo sapiens (Human)); assay: LATS2 High ATP HTRF Assay; assay type: biochemical; settings: no asterisk: LATS2 High ATP HTRF Assay, 5000 μM ATP, 0.05 nM LATS2
assay.endpoint: log10 Ki (log10 of the value in nM)
Base-10 log of Ki, unit nM.

> print(dat)
                                   compound                        measurement.target  meas.value
1  CC(C)Oc1cncc2nc(-c3ccncc3)nc(N3CCC4(CCNC4)CC3)c12  Human LATS2 catalytic domain (Homo sapiens (Human))       -1.70
2  Cc1[nH]ncc1-c1nc(N2CCC3(CC2)CCN([C@H]2CC[C@H]2O)C3)c2ccncc2n1 (single isomer, unassigned)  Human LATS2 catalytic domain (Homo sapiens (Human))       -0.96
3  CC(C)N1CCC2(CCN(c3nc(-c4ccncc4)nc4cnccc34)CC2)C1  Human LATS2 catalytic domain (Homo sapiens (Human))       -0.39
4  CC1NCCC12CCN(c1nc(-c3ccncc3)nc3cnccc13)CC2 (centres unmarked)  Human LATS2 catalytic domain (Homo sapiens (Human))        0.43

The observed log10 Ki for Oc1cncc2nc(-c3ccncc3)nc(N3CCC4(CCNC4)CC3)c12 when tested with Human LATS2 catalytic domain (Homo sapiens (Human)) stands at -0.57

The observed log10 Ki for C[C@@H](CO)N1CCC2(CCN(c3nc(-c4ccncc4)nc4cnccc34)CC2)C1 (single isomer, unassigned) when tested with Human LATS2 catalytic domain (Homo sapiens (Human)) stands at -0.28

The observed log10 Ki for CNc1cc2c(N3CCC4(CCN(C)C4)CC3)nc(-c3ccncc3)nc2cn1 when tested with Human LATS2 catalytic domain (Homo sapiens (Human)) stands at 1.00

The observed log10 Ki for OCc1cncc2nc(-c3ccncc3)nc(N3CCC4(CCNC4)CC3)c12 when tested with Human LATS2 catalytic domain (Homo sapiens (Human)) stands at 0.69

* * *

target: Human LATS2 catalytic domain (Homo sapiens (Human), UniProt Q9NRM7); experiment: LATS2 High ATP HTRF Assay; assay type: biochemical; conditions: no asterisk: LATS2 High ATP HTRF Assay, 5000 μM ATP, 0.05 nM LATS2
Sequence (Q9NRM7 553-1088): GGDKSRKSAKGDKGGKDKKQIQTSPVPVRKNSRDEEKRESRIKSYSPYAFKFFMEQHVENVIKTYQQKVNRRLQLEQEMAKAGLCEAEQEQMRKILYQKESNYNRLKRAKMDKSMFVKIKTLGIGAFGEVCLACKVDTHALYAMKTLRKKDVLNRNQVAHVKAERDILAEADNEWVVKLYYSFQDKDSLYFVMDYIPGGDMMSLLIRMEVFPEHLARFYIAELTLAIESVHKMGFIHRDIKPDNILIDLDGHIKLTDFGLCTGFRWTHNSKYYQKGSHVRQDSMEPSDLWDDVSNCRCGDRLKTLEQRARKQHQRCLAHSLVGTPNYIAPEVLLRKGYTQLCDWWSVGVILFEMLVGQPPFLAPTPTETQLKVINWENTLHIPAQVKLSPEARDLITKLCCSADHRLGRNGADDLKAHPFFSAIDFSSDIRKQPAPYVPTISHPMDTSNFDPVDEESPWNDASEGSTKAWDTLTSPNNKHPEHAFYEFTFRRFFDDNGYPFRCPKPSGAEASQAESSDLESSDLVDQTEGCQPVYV
Sequence (Q7L9L4 whole entry partner, the tested form may be a part): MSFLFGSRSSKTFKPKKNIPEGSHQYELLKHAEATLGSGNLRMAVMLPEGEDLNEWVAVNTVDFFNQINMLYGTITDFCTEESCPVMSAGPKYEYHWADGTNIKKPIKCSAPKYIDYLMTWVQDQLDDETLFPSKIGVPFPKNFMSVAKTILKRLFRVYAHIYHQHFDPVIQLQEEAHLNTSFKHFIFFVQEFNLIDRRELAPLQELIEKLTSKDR
pKi: −log10 of the molar value.
y means recorded pKi is 9 or above; n means it is below 9.

Take a look at these entries with their results.
> print(dat)
                                   compound  assigned.class
1  [O-][n+]1ccc2c(N3CCC4(CCNC4)CC3)nc(-c3ccncc3)nc2c1 [Example 207]               n
2  CC(C)(O)C#Cc1nccc2c(N3CCC4(CCNC4)CC3)nc(-c3ccncc3)nc12 [Compound 245]               y
3  CCC(=O)NCc1cc2c(N3CCC4(CCNC4)CC3)nc(-c3ccncc3)nc2cn1 [Compound 159]               n
4  Cc1n[nH]cc1-c1nc(N2CCC3(CCN(C)C3)CC2)c2cc(Cc3ccncc3)ncc2n1 [Example 236]               y
5  O[C@H]1COC[C@@H]1N1CCC2(CCN(c3nc(-c4ccncc4)nc4cnccc34)CC2)C1 (single isomer, unassigned) [Compound 177]               y

Now turn to the next compound.
Query: Is reported pKi greater than or equal to 9 here: Cc1n[nH]cc1-c1nc(N2CCC3(CC2)CCN(C2CCCC2)C3)c2ccncc2n1 [Compound 147]
Result: y
